Data origin, for the record: patent US20240287022A1

Below is a list of entries, each paired with its recorded EC50 value.
experimental system: recombinant IL4I1 (Homo sapiens (Human))
Sequence (Q96RQ9 22-567): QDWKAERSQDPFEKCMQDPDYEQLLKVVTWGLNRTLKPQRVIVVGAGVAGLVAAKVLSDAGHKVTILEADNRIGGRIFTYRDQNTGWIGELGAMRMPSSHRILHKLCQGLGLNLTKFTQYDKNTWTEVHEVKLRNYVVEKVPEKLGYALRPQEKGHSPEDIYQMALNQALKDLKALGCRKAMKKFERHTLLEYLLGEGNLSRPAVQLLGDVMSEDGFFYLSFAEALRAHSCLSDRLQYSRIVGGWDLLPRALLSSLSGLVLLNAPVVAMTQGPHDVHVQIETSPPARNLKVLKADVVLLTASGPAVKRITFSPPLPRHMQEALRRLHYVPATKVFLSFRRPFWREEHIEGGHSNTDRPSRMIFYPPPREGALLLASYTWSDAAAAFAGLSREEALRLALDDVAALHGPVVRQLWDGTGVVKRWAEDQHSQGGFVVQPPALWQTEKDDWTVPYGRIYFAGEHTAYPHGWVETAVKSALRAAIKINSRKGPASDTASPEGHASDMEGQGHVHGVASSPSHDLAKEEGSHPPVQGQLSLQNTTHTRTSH
assay name: IL4I1 Enzymatic Assay (Amplex Red/HRP coupled H2O2 detection)
measurement parameters: 1 nM IL4I1, 1 mM each Phe/Tyr/Trp, four-hour pre-incubation, 120 minutes reaction, top compound concentration of 10000 nM
property measured: EC50 (nM)

O=c1[nH]c2ccccc2cc1Cc1nnc(-c2cc(Cl)ccc2Cl)o1
2.2
CC(C)(O)Cc1ccc(Cc2cc3ccccc3[nH]c2=O)cc1
4.9
O=c1[nH]c2ccccc2cc1Cc1nnc(C2CCC2)o1
168
N#Cc1cnn2ccc(Cc3cc4ccccc4[nH]c3=O)cc12
1.7
O=C1COc2c(Cc3cc4cccc5c4n(c3=O)CCC5)cccc2N1
150
O=c1[nH]c2ccccc2cc1Cc1ccc2nccnc2c1
6.2
CC(O)C(C#N)c1ccc(Cc2cc3ccccc3[nH]c2=O)cc1 (single isomer, unassigned) [Example 102B]
7.8
CC(O)C(C#N)c1ccc(Cc2cc3ccccc3[nH]c2=O)cc1 (single isomer, unassigned) [Example 102D]
10.9
Cn1c(=O)c(Cc2ccc(C(C)(C)O)cc2)cc2ccccc21
2.6
